Test system: NCI-H460 lung
protocolDescription: NCI-60 one-dose screen, 48 h
conditionContext: 10 µM unless noted
This is part of a sample that, as a whole, favours compounds with a hit. Of some 83,000 tested, about 20% had one in any assay. Active and inactive are the calls of the source. How the source made its calls: active means growth percent below 10; inactive means the rest.
One label from this list, please: TRUE (active), FALSE (inactive)

Q) Tell me the recorded outcome of this test for O=C(Nc1ccc(Cl)cc1)c1cc(-c2ccc(Cl)cc2)c2sc(=O)[nH]c2n1 .
A) TRUE

Q) Tell me the recorded outcome of this test for CC(C)(C)[Si](C)(C)OC1[C@@H](O[Si](C)(C)C(C)(C)C)[C@@H](CNC(=O)NC(=O)NC(=O)CI)O[C@H]1n1cnc2c(NC(=O)Nc3ccccc3)ncnc21 (some centres not stated) .
A) FALSE

Q) Tell me the recorded outcome of this test for C=C[C@H]1CCC/C=C/[C@@H]2C[C@H](O)C[C@H]2[C@H](O)/C=C/C(=O)O1 .
A) TRUE

Q) Tell me the recorded outcome of this test for O=[N+]([O-])c1ccc(N=Nc2c(NNc3ccc([N+](=O)[O-])cn3)cc(S(=O)(=O)O)c3ccccc23)nc1 .
A) FALSE

Q) Tell me the recorded outcome of this test for CNC1=C([N+](=O)[O-])C(c2ccccc2O)C(C#N)=C(c2cccs2)O1 (configuration not stated) .
A) FALSE

Q) Tell me the recorded outcome of this test for O=C(c1ccccc1)C1OC1C(=O)c1ccccc1 (configuration not stated) .
A) FALSE

Q) Tell me the recorded outcome of this test for Cc1ccccc1Nc1n[nH]c(Cc2ccccc2)n1 .
A) FALSE
